Below is a list of entries, each paired with its recorded Ki value.
- assay_target: recombinant human 5-HT6 receptor (Homo sapiens)
- Construct: membranes
- Sequence (P50406 whole entry): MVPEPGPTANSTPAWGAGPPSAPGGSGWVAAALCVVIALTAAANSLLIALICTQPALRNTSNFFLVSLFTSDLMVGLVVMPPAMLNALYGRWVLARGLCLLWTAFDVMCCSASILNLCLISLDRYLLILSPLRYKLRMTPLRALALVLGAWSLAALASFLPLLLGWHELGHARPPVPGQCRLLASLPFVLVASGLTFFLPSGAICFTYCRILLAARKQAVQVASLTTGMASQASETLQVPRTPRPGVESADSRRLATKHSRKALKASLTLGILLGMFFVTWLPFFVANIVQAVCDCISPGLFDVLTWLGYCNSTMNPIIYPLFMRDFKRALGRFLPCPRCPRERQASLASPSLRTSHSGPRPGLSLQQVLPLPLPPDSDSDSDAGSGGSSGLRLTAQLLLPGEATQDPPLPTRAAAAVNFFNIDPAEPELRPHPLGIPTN
- protocol_details: in vitro radioligand binding, [3H]LSD competition in membranes of HEK293 cells expressing 5-HT6
- experimental_parameters: [3H]LSD (5 nM) displacement, HEK293 cell membranes, 60 min at 37° C., pH 7.4
- Method: This example illustrates in vitro radioligand binding studies of compound of formula (I). The binding activity of compounds of this invention in vitro was determined as follows. […] All determinations were made in assay buffer containing 50 mM Tris-HCl, 10 mM MgSO4, 0.5 mM EDTA, 1 mM ascorbic acid, pH 7.4 at 37° C., in a 250 microliter reaction volume. […] LSD was determined as radioactive counts per minute using Packard TopCount. […]
Give your result in nM as a bare value.

Sample answers from the record:
Cc1cc(N2CCNCC2)c2c(c1)N(S(=O)(=O)c1cccc(F)c1)CCO2    2
O=S(=O)(c1ccccc1Cl)N1CCOc2c(N3CCNCC3)cccc21    2.14
O=S(=O)(c1ccccc1F)N1CCOc2c(N3CCNCC3)cccc21    1.26
O=S(=O)(c1cccc(F)c1)N1CCOc2c(N3CCNCC3)cccc21    11.2
Cc1cc(N2CCNCC2)c2c(c1)N(S(=O)(=O)c1cccc(F)c1)CC(C)(C)O2    0.407

GET /values?readout=Ki&system=recombinant human 5-HT6 receptor (Homo sapiens)&item= CC1(C)CN(S(=O)(=O)c2ccccc2F)c2cc(F)cc(N3CCNCC3)c2O1 0.209

GET /values?readout=Ki&system=recombinant human 5-HT6 receptor (Homo sapiens)&item= O=S(=O)(c1cccc(F)c1)N1CC2(CCC2)Oc2c(N3CCNCC3)cccc21 1.17

GET /values?readout=Ki&system=recombinant human 5-HT6 receptor (Homo sapiens)&item= O=S(=O)(c1ccccc1F)N1CCOc2c(N3CCNCC3)cc(F)cc21 0.724

GET /values?readout=Ki&system=recombinant human 5-HT6 receptor (Homo sapiens)&item= CC1(C)CN(S(=O)(=O)c2ccccc2F)c2cccc(N3CCNCC3)c2O1 0.209
